Let's look at some binders and their measured koff.
- target_of_assay: T1, recombinant human IL-23 (human, UniProt P29460 23-328)
- T1 construct: also called Human recombinant IL-23
- T1 sequence 1: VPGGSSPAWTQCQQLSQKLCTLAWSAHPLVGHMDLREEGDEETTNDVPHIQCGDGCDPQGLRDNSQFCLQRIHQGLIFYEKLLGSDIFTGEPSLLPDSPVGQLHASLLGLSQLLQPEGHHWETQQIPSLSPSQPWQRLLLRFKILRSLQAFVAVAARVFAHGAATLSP
- T1 sequence 2: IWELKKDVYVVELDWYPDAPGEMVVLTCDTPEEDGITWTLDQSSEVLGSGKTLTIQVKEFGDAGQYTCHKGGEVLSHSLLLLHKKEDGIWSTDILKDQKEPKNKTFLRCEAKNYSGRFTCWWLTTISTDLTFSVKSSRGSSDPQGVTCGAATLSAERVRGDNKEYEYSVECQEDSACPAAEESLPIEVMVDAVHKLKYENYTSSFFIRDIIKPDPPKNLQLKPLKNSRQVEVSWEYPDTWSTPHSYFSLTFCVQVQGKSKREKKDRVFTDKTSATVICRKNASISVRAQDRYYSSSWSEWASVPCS
- method: BLI, Fortebio Octet; hybridoma-derived antibody
// return numeric value only (unit: s⁻¹, not printed)

Answered examples (6):
INSERT INTO results (binder, readout_units, readout_value) VALUES
  ('22E2 (antibody, V domains shown, Mouse monoclonal antibody from hybridoma; also called 22E2vk; 22E2vh) VH: EVQLQQSGPELVKPGASVKMSCKASGYTFTSSIIHWVKQRPGQGLEWIGYINPYDDVTKYNEKFKGKATLTSDKSSSTAYMELSSLTSEDSAVYYCARRWDESYWGQGTLVTVSA VL: DIVMTQSPATLSVTPGDRVSLSCRASQSISVYLHWYQQKSPESPRLLIKYASQSISGIPSRFSGSGSGSDFTLSINSVEPEDVGVYYCQNGHSFPFTFGSGTKLEIK', 's⁻¹', 0.000353),
  ('27G8 (antibody, V domains shown, Mouse monoclonal antibody from hybridoma; also called 27G8vk; 27G8vh) VH: QVQLQQSDAELVKPGASVKISCKVSGYTFTDHTIHWMKQRPEQGLEWIGYIYPRDGYPKFNEKFKGKATLTADKSSSTAYMQLNSLTSEDSAVYFCARRPPYYAMDYWGQGTSVAVSS VL: DIVLTQSPASLAVSLGQRATISCRASKSVSTSGYSYIHWYQQKPGQPPKFLIYLASNLDSGVPARFSGSGSGTDFTLNIHPVEEEDAATYYCQHSRELPYTFGGGTKLEIK', 's⁻¹', '4.26e-06'),
  ('20E8 (antibody, V domains shown, Mouse monoclonal antibody from hybridoma; also called 20E8vk; 20E8vh) VH: EVQLQQSGPELVKPGASVKMSCKASGYTFTSSVMHWVKQKAGQGLEWIGYINPYNDGTQYNEKFKGKATLTSDKFSSTAYMELSSLTSEDSAVYYCTRRLDEAYWGQGTLVTVSA VL: DIVMTQSPATLSVTPGDRVSLSCRASQSISEYLHWYQQKSHESPRLLIKYASQSISGIPSRFSGSGSGSDFTLSINSVEPEDVGVYYCQNGHSFPFTFGSGTKLEIK', 's⁻¹', 0.000269),
  ('31H9 (antibody, V domains shown, Mouse monoclonal antibody from hybridoma; also called 31H9vk; 31H9vh) VH: EVQLQQSGPELVKPGASVKMSCKASGYTFTRYLMHWVKQKPGQGLEWIGYINPYNDGTNYNEKFKGKATLTSDKSSSTAYMELSSLTSEDSAVYYCSLNWDYAYWGQGTLVTVSA VL: DIVMTQSPATLSVTPGDRVSLSCRASQSISDYLHWYQQKSHESPRLLIKYASQSISGIPSRFSGSGSGSDFTLSINSVEPEDVGVYYCQNGHSFPYTFGGGTKLEIK', 's⁻¹', '3.45e-06'),
  ('34D9 (antibody, V domains shown, Mouse monoclonal antibody from hybridoma; also called 34D9Vk; 34D9VH7) VH: EVQLQQSGPELVKPGASVKIPCKASGYTFTDYNMDWVKKSHGKSLEWIGDINPHNGGTIYNQKFKGKATLTVDKSSSTAHMELRSLTSEDTAVYYCARNYYGSSYGWYFDVWGTGTTVTVSS VL: DIMMTQSHKFMSTSVGDRVSITCKASQDVGNAVVWYQQKPGQSPKLLIYWASTRHIGVPDRFTGSGSGTDFTLTITNVQSEDLADYFCQQYSSYLTFGAGTKLELK', 's⁻¹', '1.87e-06'),
  ('15C11 (antibody, V domains shown, Mouse monoclonal antibody from hybridoma; also called 15C11vk; 15C11vh) VH: EVQLQQSGPVLVKPGASVKMSCKASGYTFTDYYMNWVKQSHGKSLEWIGVIIPYNGGTSYNQKFKGKATLTVDKSSSTAYMELNSLTSEDSAVYYCARDGHRWYFDVWGTGTTVTVSS VL: DVVMTQTPLSLPVSLGDQASISCRSSQSLVHSNGNTYLHWYLQKPGQSPKLLIYKVSNRFSGVPDRFSGSGSGTDFTLKINRVEAEDLGVYFCSQSTHVPYTFGGGTQLEIK', 's⁻¹', '1.07e-05');

Task: # lookup: koff of 43F5 (antibody, V domains shown, Mouse monoclonal antibody from hybridoma; also called 43F5vk; 43F5vh) VH: EVQLQQSGPELVKPGASVKISCRASGYSFTGYYMNWVKQSPEKSLEWIGEIIPTTGGTSYNQKFKAKATLTVDKSSSTAYMQLKSLTSEDSAVYYCARESGGFYWYFDVWGTGTTVTVSS VL: DVVMTQSPLSLPVSLGDQASISCRSSQSLVHSNGNTYLHWYLLKPGQSPKLLIYKVSNRFSGVPDRFSGSGSGTDFTLKISRVEAEDLGVYFCSQSTHVPYTFGGGTKLEIK
Result: 5.96e-06

Task: # lookup: koff of 18C4 (antibody, V domains shown, Mouse monoclonal antibody from hybridoma; also called 18C4vk; 18C4vh) VH: EVQLQQSGPEVVKPGASVKMSCKASGYTFTSSVIHWVKQKAGQGLEWIGYINPYNDGTKYNEKFKGKATLTSDRSSSTAYMELSSLTSEDSAVYYCTRRLDEAYWGQGTLVTVSA VL: DIVMTQSPATLSVTPGDRVSLSCRASQSISEYLHWYQQKSHESPRLLIKYASQSISGIPSRFSGSGSGSDFTLSINSVEPEDVGVYYCQNGHSFPFTFGSGTKLEIK
Result: 2.14e-06
